Provenance of the data: the NIST ThermoML archive (doi:10.1016/j.jct.2012.06.009)

- Assay Comment: activity coefficient (dimensionless); of the first substance listed, at infinite dilution; xn = mol fraction of the nth substance listed
- Condition Label: 353.3 K; 101 kPa; Liquid; Chromatography; x1 = 0
Reported activity coefficient values are given for each entry in this list.

[
  {
    "Compound": "CCCCCCC [heptane] + CCCCCCCCCC(=O)O",
    "activity coefficient": 1.75
  },
  {
    "Compound": "ClC(Cl)Cl [trichloromethane] + CCCCCCCCCCCC(=O)O",
    "activity coefficient": 0.839
  },
  {
    "Compound": "Clc1ccccc1 [chlorobenzene] + CCCCCCCCCC(=O)O",
    "activity coefficient": 1.15
  },
  {
    "Compound": "CC(C)=O [acetone] + CCCCCCCCCCCCCC(=O)O",
    "activity coefficient": 1.27
  },
  {
    "Compound": "ClCCCl [1,2-dichloroethane] + CCCCCCCCCCCCCC(=O)O",
    "activity coefficient": 1.13
  },
  {
    "Compound": "CCC(C)O (stereo unspecified) [butan-2-ol] + CCCCCCCCCC(=O)O",
    "activity coefficient": 1.04
  }
]

----------
- Assay Comment: activity coefficient (dimensionless); of the first substance listed, at infinite dilution; xn = mol fraction of the nth substance listed
- Condition Label: 314.24 K; 101 kPa; Liquid; Chromatography; x1 = 0
Reported activity coefficient values are given for each entry in this list.
Quantity: activity coefficient

[
  {
    "Compound": "CC(C)=O [acetone] + CCCCCCCCCCCCCC(=O)O",
    "Number": 1.46
  },
  {
    "Compound": "CC(C)=O [acetone] + CCCCCCCCCCCC(=O)O",
    "Number": 1.59
  },
  {
    "Compound": "CCC(C)O (stereo not drawn) [butan-2-ol] + CCCCCCCCCCCCCC(=O)O",
    "Number": 1.21
  },
  {
    "Compound": "CCO [ethanol] + CCCCCCCCCCCCCC(=O)O",
    "Number": 1.79
  },
  {
    "Compound": "CCOC(C)=O [ethyl acetate] + CCCCCCCCCCCC(=O)O",
    "Number": 1.36
  },
  {
    "Compound": "Cc1ccccc1 [toluene] + CCCCCCCCCC(=O)O",
    "Number": 1.17
  },
  {
    "Compound": "CO [methanol] + CCCCCCCCCCCCCC(=O)O",
    "Number": 1.92
  },
  {
    "Compound": "CCCCCCC [heptane] + CCCCCCCCCCCCCC(=O)O",
    "Number": 1.47
  }
]
